Data provenance is ChEMBL document CHEMBL5058577.

test system: Fibroblast; experiment: Multiplex assay against human fibroblast; format: toxicity, cell-based; conditions: 24 h, 1 µM, compound concentration 1 uM, replicate 1
Each entry below carries its reported Population Normal (%).
parameter-measured: Population Normal (%)

INSERT INTO assay_data (compound, val) VALUES
  ('Cc1sc2c(c1C)C(c1ccc(Cl)cc1)=N[C@@H](CC(=O)NCCCCCCCCNC(=O)COc1cccc3c1C(=O)N(C1CCC(=O)NC1=O)C3=O)c1nnc(C)n1-2 (stereo not given in full)', 89),
  ('Cc1c(CC(=O)O)c2cccnc2n1Cc1ccc(S(C)(=O)=O)cc1C(F)(F)F', 96),
  ('CC[C@@H](C)Nc1nc(C)nc2c(-c3ccc(OC)nc3C)c(C)nn12', 98),
  ('CN1CCN(c2cc(-c3ccccc3)nc(N)n2)CC1', 97),
  ('O=C(CCCc1ccccc1)Nc1nc2ccccc2c(=O)s1', 97);

====

Each entry below carries its reported Population Pyknosed Nuclei (%).
system: U2OS; test: Multiplex assay against U2OS; type: toxicity, cell-based; conditions: human, 48 h, 1 µM, compound concentration 1 uM, replicate 2
parameter-measured: Population Pyknosed Nuclei (%)

INSERT INTO results (compound, system_name, val) VALUES
  ('CN[C@@H](C)C(=O)N[C@H](C(=O)N1CCC[C@H]1C(=O)Nc1snnc1-c1ccccc1)C1CCCCC1', 'U2OS', 34),
  ('COC[C@@H](c1ccc(C(F)(F)F)cc1)N1CCN(C2(C)CCN(C(=O)c3c(C)ncnc3C)CC2)C[C@@H]1C.O=C(O)/C=C\C(=O)O [VICRIVIROC MALEATE]', 'U2OS', 11),
  ('CN(C)C(=O)Cn1cc(-c2ccc(-c3cncc4ccccc34)cc2)cn1', 'U2OS', 11),
  ('N#Cc1c(Oc2cccc(OS(=O)(=O)CCCC(F)(F)F)c2)cccc1C(F)(F)F', 'U2OS', 9),
  ('NCCc1cn(S(=O)(=O)c2c(Cl)nc3sccn23)c2ccccc12.O=C(O)C(=O)O', 'U2OS', 12);

====

test system: Fibroblast; experiment: Multiplex assay against human fibroblast; type: toxicity, cell-based; details: 12 h, 1 µM, compound concentration 1 uM, replicate 1
parameter-measured: Population Tubulin-Different-Phenotype (%)

INSERT INTO assay_data (molecule, units_label, val) VALUES
  ('CC(C)(C)c1cc(NC(=O)Nc2ccc(-c3cn4c(n3)sc3cc(OCCN5CCOCC5)ccc34)cc2)no1', '%', 31),
  ('Cc1c(CC(=O)O)c2cccnc2n1Cc1ccc(S(C)(=O)=O)cc1C(F)(F)F', '%', 20),
  ('N#Cc1c(Oc2cccc(OS(=O)(=O)CCCC(F)(F)F)c2)cccc1C(F)(F)F', '%', 38),
  ('Cc1cnc(-c2cc(N3CCN(C(=O)CCS(C)(=O)=O)CC3)ncc2Cl)c(C)c1', '%', 20),
  ('Cc1noc(-c2ccc(-c3ccc(CC(=O)O)cc3)cc2)c1NC(=O)O[C@H](C)c1ccccc1Cl', '%', 10),
  ('CCCOc1ccc2[nH]cc(C3=CCNCC3)c2n1.Cl', '%', 27),
  ('COc1cccc2c1c(NS(=O)(=O)c1ccc(Cl)s1)nn2Cc1cccc(CNC(=O)C(C)(C)O)c1', '%', 27),
  ('CC(=O)Nc1cccc2c1c(Sc1ccc(Cl)cc1)c(C)n2CC(=O)O', '%', 33),
  ('CCCCC(=O)N(Cc1ccc(-c2ccccc2-c2nnn[nH]2)cc1)[C@H](C(=O)O)C(C)C', '%', 20),
  ('O=C1[C@H](Cc2ccc(O)cc2)N2C(=O)CCN(C(=O)NCc3ccccc3)[C@H]2CN1Cc1cccc2ccccc12', '%', 47),
  ('NCCc1cn(S(=O)(=O)c2c(Cl)nc3sccn23)c2ccccc12.O=C(O)C(=O)O', '%', 40),
  ('CN[C@@H](C)C(=O)N[C@H](C(=O)N1CCC[C@H]1C(=O)Nc1snnc1-c1ccccc1)C1CCCCC1', '%', 38),
  ('CC[C@@H](C)Nc1nc(C)nc2c(-c3ccc(OC)nc3C)c(C)nn12', '%', 35),
  ('CCCCCC(O)/C=C/[C@H]1C(=O)CC(O)C1C/C=C\CCCC(=O)O (stereo partly drawn)', '%', 19),
  ('O=C(NCCN1CCC(n2c(=O)[nH]c3cc(Cl)ccc32)CC1)c1ccc(F)cc1 [HALOPEMIDE]', '%', 29),
  ('Cl.NCCc1ccc(O)c(O)c1 [DOPAMINE HYDROCHLORIDE]', '%', 34),
  ('C[C@H](N)COC(=O)[C@@H](CCCCN)NC(=O)Cc1c(-c2ccc3ccccc3c2)[nH]c2c1ccc1ccccc12', '%', 32),
  ('CN1CCN(c2cc(-c3ccccc3)nc(N)n2)CC1', '%', 25),
  ('CC(C)c1noc(N2CCC(COc3ccc(-c4ccc(S(C)(=O)=O)cc4)nc3)CC2)n1', '%', 21),
  ('COc1ccccc1N1CCN(C[C@@H](C(=O)NC(C)(C)C)c2ccccc2)CC1.Cl.Cl', '%', 37),
  ('COC[C@@H](c1ccc(C(F)(F)F)cc1)N1CCN(C2(C)CCN(C(=O)c3c(C)ncnc3C)CC2)C[C@@H]1C.O=C(O)/C=C\C(=O)O [VICRIVIROC MALEATE]', '%', 16),
  ('Cl.N=C(N)NC(=O)Cc1c(Cl)cccc1Cl [GUANFACINE HYDROCHLORIDE]', '%', 32),
  ('CN(C)C(=O)Cn1cc(-c2ccc(-c3cncc4ccccc34)cc2)cn1', '%', 31),
  ('CC(C)COc1ccc(CNC(=O)N(Cc2ccc(F)cc2)C2CCN(C)CC2)cc1', '%', 35),
  ('Cc1sc2c(c1C)C(c1ccc(Cl)cc1)=N[C@@H](CC(=O)NCCCCCCCCNC(=O)COc1cccc3c1C(=O)N(C1CCC(=O)NC1=O)C3=O)c1nnc(C)n1-2 (stereo partly drawn)', '%', 25),
  ('O=C(CCCc1ccccc1)Nc1nc2ccccc2c(=O)s1', '%', 34),
  ('CCCCC1=NC2(CCCC2)C(=O)N1Cc1ccc(-c2ccccc2-c2nnn[nH]2)cc1', '%', 28),
  ('Cc1onc(-c2ccccc2Cl)c1C(=O)N(C)c1ccc(Cl)cc1', '%', 23),
  ('Br.CS(=O)(=O)Nc1c(O)ccc2c1CCCC2C1=NCCN1 (stereo not drawn)', '%', 20),
  ('CC(/C=C1\SC(=S)N(CCCC(=O)Nc2ccc(C(=O)O)c(O)c2)C1=O)=C\c1ccccc1', '%', 28),
  ('N#Cc1cc(F)cc(-c2nc(-c3ccc(F)cn3)no2)c1', '%', 22),
  ('Cc1cccc(NC(=O)CN2CCC(c3ccccn3)CC2)c1.Cl.Cl', '%', 34),
  ('CCc1cc2cc(NS(=O)(=O)c3ccc(C#N)cc3)ccc2n(CC)c1=O', '%', 24);

====

test system: Fibroblast; assay: Multiplex assay against human fibroblast; format: toxicity, cell-based; conditions: 24 h, 1 µM, compound concentration 1 uM, replicate 2
Each entry below carries its reported Population Healthy Nuclei (%).
parameter-measured: Population Healthy Nuclei (%)

INSERT INTO results (compound, system_name, parameter_measured, val) VALUES
  ('Br.CS(=O)(=O)Nc1c(O)ccc2c1CCCC2C1=NCCN1 (stereo not given)', 'Fibroblast', 'Population Healthy Nuclei (%)', 60),
  ('CN1CCN(c2cc(-c3ccccc3)nc(N)n2)CC1', 'Fibroblast', 'Population Healthy Nuclei (%)', 44),
  ('O=C(NCCN1CCC(n2c(=O)[nH]c3cc(Cl)ccc32)CC1)c1ccc(F)cc1 [HALOPEMIDE]', 'Fibroblast', 'Population Healthy Nuclei (%)', 41),
  ('CCCOc1ccc2[nH]cc(C3=CCNCC3)c2n1.Cl', 'Fibroblast', 'Population Healthy Nuclei (%)', 52),
  ('CC(/C=C1\SC(=S)N(CCCC(=O)Nc2ccc(C(=O)O)c(O)c2)C1=O)=C\c1ccccc1', 'Fibroblast', 'Population Healthy Nuclei (%)', 63);

====

system: U2OS; test: Multiplex assay against U2OS; assay type: toxicity, cell-based; conditions: human, 48 h, 1 µM, compound concentration 1 uM, replicate 1
parameter-measured: Population Normal (%)

INSERT INTO assay_data (compound, system_name, parameter_measured, val) VALUES
  ('Cc1c(CC(=O)O)c2cccnc2n1Cc1ccc(S(C)(=O)=O)cc1C(F)(F)F [FEVIPIPRANT]', 'U2OS', 'Population Normal (%)', '97%'),
  ('Cc1onc(-c2ccccc2Cl)c1C(=O)N(C)c1ccc(Cl)cc1', 'U2OS', 'Population Normal (%)', '97%'),
  ('CCCCC(=O)N(Cc1ccc(-c2ccccc2-c2nnn[nH]2)cc1)[C@H](C(=O)O)C(C)C', 'U2OS', 'Population Normal (%)', '97%'),
  ('NCCc1cn(S(=O)(=O)c2c(Cl)nc3sccn23)c2ccccc12.O=C(O)C(=O)O', 'U2OS', 'Population Normal (%)', '98%'),
  ('Cc1noc(-c2ccc(-c3ccc(CC(=O)O)cc3)cc2)c1NC(=O)O[C@H](C)c1ccccc1Cl', 'U2OS', 'Population Normal (%)', '98%'),
  ('CCc1cc2cc(NS(=O)(=O)c3ccc(C#N)cc3)ccc2n(CC)c1=O', 'U2OS', 'Population Normal (%)', '97%'),
  ('CC(C)COc1ccc(CNC(=O)N(Cc2ccc(F)cc2)C2CCN(C)CC2)cc1 [PIMAVANSERIN]', 'U2OS', 'Population Normal (%)', '97%'),
  ('CC(/C=C1\SC(=S)N(CCCC(=O)Nc2ccc(C(=O)O)c(O)c2)C1=O)=C\c1ccccc1', 'U2OS', 'Population Normal (%)', '97%'),
  ('CCCOc1ccc2[nH]cc(C3=CCNCC3)c2n1.Cl', 'U2OS', 'Population Normal (%)', '97%');
